# B-HRP10 light intensity per entry
Molecular target: biotinylated HRP (Armoracia rusticana)
Construct: purchased Roche Diagnostics, Indianapolis, Ind., USA
Sequence (P00433 31-338 limits assumed): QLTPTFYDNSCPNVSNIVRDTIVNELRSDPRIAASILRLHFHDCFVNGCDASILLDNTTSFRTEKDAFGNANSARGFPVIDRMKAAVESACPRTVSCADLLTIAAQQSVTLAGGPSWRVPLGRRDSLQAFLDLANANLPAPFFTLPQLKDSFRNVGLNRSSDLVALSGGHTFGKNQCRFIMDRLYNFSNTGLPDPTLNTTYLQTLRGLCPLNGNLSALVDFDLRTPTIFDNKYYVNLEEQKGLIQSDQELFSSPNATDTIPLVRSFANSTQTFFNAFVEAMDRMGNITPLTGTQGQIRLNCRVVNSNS
Test: Model system for selection of SSIA (M280 btn-BSA-AK1-streptavidin particles + Btn-HRP:HRP)
Assay type: biochemical
Settings: Btn-HRP 10 ng/mL, total HRP 500 ng/mL; SSIA final 100 μM

Solved cases below.
compound="Cc1c(C)c2c(c(C)c1O)CCC(C)(C(=O)O)O2 (stereo not drawn)" target="biotinylated HRP (Armoracia rusticana)" endpoint_result=37,291
compound="O=C(O)CCCC[C@@H]1CCSS1 (racemic)" target="biotinylated HRP (Armoracia rusticana)" endpoint_result=2,450,949

Task item: Data request, read-out B-HRP10 light intensity, for Oc1ccc(C=Cc2cc(O)cc(O)c2)cc1
Reply: 1,073,968

---

Target: biotinylated HRP (Armoracia rusticana, UniProt P00433)
Construct: purchased Roche Diagnostics, Indianapolis, Ind., USA
Assay: Model system for selection of SSIA (M280 btn-BSA-AK1-streptavidin particles + Btn-HRP:HRP)
Type: biochemical
Conditions: Btn-HRP 10 ng/mL vs 0; SSIA 100 μM
Reported S2/S0 is given for each of the following molecules.

molecule="Nc1ccccc1O [2-aminophenol]" target="biotinylated HRP (Armoracia rusticana, UniProt P00433)" endpoint_result=132.8
molecule="CC(=O)N[C@@H](CS)C(=O)O [N-Ac-Cysteine, N-acetyl cysteine]" target="biotinylated HRP (Armoracia rusticana, UniProt P00433)" endpoint_result=40.3

Continue with the next molecule.
Task item: State the recorded S2/S0 for this entry: O=C(O)CCCC[C@@H]1CCSS1 (racemic) [Lipoic Acid]
Reply: 70

---

Target: biotinylated HRP (Armoracia rusticana)
Construct: purchased Roche Diagnostics, Indianapolis, Ind., USA
Test: Model system for selection of SSIA (M280 btn-BSA-AK1-streptavidin particles + Btn-HRP:HRP)
Format: biochemical
Conditions: Btn-HRP 100 ng/mL, total HRP 500 ng/mL; SSIA final 100 μM
measured-endpoint: B-HRP100 light intensity

See these solved cases before continuing.
compound="NNC(=O)c1cccnc1 [Nicotinic Hydrazide]" endpoint_result=8,205,320
compound="O=C(O)CCCC[C@@H]1CCSS1 (racemic)" endpoint_result=8,647,037
compound=CC1(C)CC(O)CC(C)(C)N1[O] endpoint_result=9,220,799
compound=CC1(C)OC[C@@H]([C@H]2OC(=O)C(O)=C2O)O1 endpoint_result=4,917,499

Here is the next item to consider.
Task item: Need B-HRP100 light intensity, item O=c1[nH]c(=O)c2[nH]c(=O)[nH]c2[nH]1
Reply: 8,712,328
